# GI50 values compiled below
Biological target: ABL P210WT BAF3 cells (Homo sapiens, UniProt P00519)
Construct: ABL P210WT BAF3; fused on or other part: P11274 (Breakpoint cluster region protein)
Test: 96-well XTT cell survival assay, BaF3 ABL P210WT
Format: cell-based
Conditions: ABL P210 WT, 72 hours, read-out: CELL BIO ABL P210WT BAF3 XTT (IC50)

Consider the worked cases shown below.
| molecule | GI50 |
| --- | --- |
| Nc1ncc(-c2cnc3[nH]cc(-c4cc(F)ccc4F)c3c2Cl)cc1C(=O)N1CCCC1CO (stereo not drawn) | 100 to 1000 nM |
| CN(C)C(=O)c1nc(-c2cnc3[nH]cc(-c4ccc(F)cc4)c3c2Cl)cnc1N | 100 to 1000 nM |
| COc1ccccc1-c1c[nH]c2ncc(-c3cncc(C(O)C(=O)N(C)C)c3)c(SC)c12 (stereo not drawn) | 100 to 1000 nM |
| CN(C)C(=O)c1cncc(-c2cnc3[nH]cc(-c4ccccc4F)c3c2Cl)n1 [6-[4-chloro-3-(2-fluoro-phenyl)-1H-pyrrolo[2,3,b]pyridine-5-] | 100 to 1000 nM |
| COc1ccc(C(F)(F)F)cc1-c1c[nH]c2ncc(-c3cnc(N)c(C(=O)N(C)C)c3)c(Cl)c12 | 100 to 1000 nM |
| OC(c1cccc(-c2cnc3[nH]cc(-c4ccccc4F)c3c2Cl)c1)c1ncco1 (stereo not drawn) | > 1000 nM |
| Nc1ncc(-c2cnc3[nH]cc(-c4cccc(F)c4)c3c2Cl)cc1C(=O)N1CCOCC1 | 10 to 100 nM |
| CN(C)C(=O)c1cncc(-c2cnc3[nH]nc(-c4ccccc4)c3c2Cl)c1 | > 1000 nM |
| CN(C)C(=O)C(O)c1cncc(-c2cnc3[nH]cc(-c4ccccc4Cl)c3c2Cl)c1 (stereo not drawn) | 100 to 1000 nM |
| CN(C)C(=O)Cc1cncc(-c2cnc3[nH]cc(-c4cccc(F)c4F)c3c2Cl)c1 | 100 to 1000 nM |

Give GI50; test system ABL P210WT BAF3 cells (Homo sapiens, UniProt P00519); molecule CN(C)C(=O)Cc1cncc(-c2cnc3[nH]cc(-c4ccccc4)c3c2Cl)c1
> 1000 nM

Fill in GI50 for CN(C)C(=O)C(O)c1cncc(-c2cnc3[nH]cc(-c4ccc(F)cc4)c3c2Cl)c1 (stereo not drawn) tested with ABL P210WT BAF3 cells (Homo sapiens, UniProt P00519).
100 to 1000 nM

Lab note: ABL P210WT BAF3 cells (Homo sapiens, UniProt P00519) assay, enter GI50 for COc1ccccc1-c1n[nH]c2ncc(-c3cncc(C(O)C(=O)N(C)C)c3)c(Cl)c12 (stereo not drawn) here
100 to 1000 nM

---

Target: ABL T315I BAF3 cells (Homo sapiens, UniProt P00519, T315I, cells depend on it)
Construct: ABL T315I BAF3; fused on or other part: P11274 (Breakpoint cluster region protein)
Experiment: 96-well XTT cell survival assay, BaF3 ABL T315I
Format: cell-based
Settings: 72 hours, read-out: CELL BIO ABL T315I BAF3 XTT (IC50)
Method: MV4-11 and THP cells were maintained in Iscove's Modified Dulbecco's Medium supplemented with 10% fetal bovine serum (FBS) and penicillin/streptomycin, Ba/F3 cells were maintained in RPMI 1640 supplemented with 10% FBS, penicillin/streptomycin and 5 ng/ml recombinant mouse IL-3. Compounds were tested in the following assays in duplicate. […]
Collected GI50 values appear next to each entry.

Solved cases below.
| compound | target_desc | GI50 |
| --- | --- | --- |
| CN(C)C(=O)c1cc(-c2cnc3[nH]cc(-c4ccccc4F)c3c2Cl)cnc1N | ABL T315I BAF3 cells (Homo sapiens, UniProt P00519, T315I, cells depend on it) | 0.1 to 1 µM |
| CN(C)C(=O)c1cc(-c2cnc3[nH]cc(-c4ccc5c(c4)CC(=O)N5)c3c2Cl)cnc1N | ABL T315I BAF3 cells (Homo sapiens, UniProt P00519, T315I, cells depend on it) | > 1 µM |
| CN(C)C(=O)c1cncc(-c2cnc3[nH]cc(-c4ccccc4Cl)c3c2Cl)c1 | ABL T315I BAF3 cells (Homo sapiens, UniProt P00519, T315I, cells depend on it) | > 1 µM |
| CN(C)C(=O)c1cncc(-c2cnc3[nH]cc(-c4ccccc4F)c3c2Cl)n1 [6-[4-Chloro-3-(2-fluoro-phenyl)-1H-pyrrolo[2,3-b]pyridin-5-y] | ABL T315I BAF3 cells (Homo sapiens, UniProt P00519, T315I, cells depend on it) | > 1 µM |
| CN(C)C(=O)Cc1cncc(-c2cnc3[nH]cc(-c4ccccc4)c3c2Cl)c1 | ABL T315I BAF3 cells (Homo sapiens, UniProt P00519, T315I, cells depend on it) | > 1 µM |

Look up and report measured GI50 for this entry: COc1ncccc1-c1c[nH]c2ncc(-c3cnc(N)c(C(=O)N(C)C)c3)c(Cl)c12
0.01 to 0.1 µM

State its GI50: COc1ccccc1-c1c[nH]c2ncc(-c3cccc(C(=O)N(C)C)c3)c(Cl)c12
0.01 to 0.1 µM

Tell me its GI50 given CN(C)C(=O)c1cncc(-c2cnc3[nH]cc(-c4ccccc4F)c3c2Cl)c1 as the entry.
0.1 to 1 µM

Please look at this compound and report its GI50: Nc1ncc(-c2cnc3[nH]cc(-c4cccc(F)c4)c3c2Cl)cc1C(=O)N1CCOCC1
0.01 to 0.1 µM

---

Biological target: ABL P210WT BAF3 cells (Homo sapiens)
Construct: ABL P210WT BAF3; fused on or other part: P11274 (Breakpoint cluster region protein)
Assay: 96-well XTT cell survival assay, BaF3 ABL P210WT
Type: cell-based
Conditions: ABL P210 WT, 72 hours, read-out: CELL BIO ABL P210WT BAF3 XTT (IC50)
metric_name: GI50

| compound | result |
| --- | --- |
| COc1ccccc1-c1c[nH]c2ncc(-c3cccc(C(=O)N(C)C)c3)c(C)c12 | 0.01 to 0.1 µM |
| CNC(=O)c1cncc(-c2cnc3[nH]cc(-c4ccccc4F)c3c2Cl)c1 | > 1 µM |
| CNc1c(-c2cncc(C(O)C(=O)N(C)C)c2)cnc2[nH]cc(-c3ccccc3OC)c12 (centres unmarked) | 0.1 to 1 µM |

Tell me GI50 reported for OC(c1cncc(-c2cnc3[nH]cc(-c4ccc(F)cc4)c3c2Cl)c1)c1ncccc1F (centres unmarked)
> 1 µM

Recall and state the measured GI50 for OC(c1cncc(-c2cnc3[nH]cc(-c4ccccc4)c3c2Cl)c1)c1ncccc1F (centres unmarked) .
0.1 to 1 µM

Read off the recorded GI50 for COc1cc(F)c(F)cc1-c1c[nH]c2ncc(-c3cnc(N)c(C(=O)N(C)C)c3)c(Cl)c12
0.01 to 0.1 µM

Report measured GI50; entry is COc1ccccc1-c1c[nH]c2ncc(Br)c(N(C)CCO)c12
> 1 µM

Consider the compound COc1ccccc1-c1c[nH]c2ncc(-c3cccc(C(=O)N(C)C)c3)c(Cl)c12 and give its recorded GI50.
0.01 to 0.1 µM

---

Molecular target: ABL P210WT BAF3 cells (Homo sapiens, UniProt P00519)
Construct: ABL P210WT BAF3; fused on or other part: P11274 (Breakpoint cluster region protein)
Assay: 96-well XTT cell survival assay, BaF3 ABL P210WT
Format: cell-based
Conditions: ABL P210 WT, 72 hours, read-out: CELL BIO ABL P210WT BAF3 XTT (IC50)
Below, each entry is listed with its recorded GI50.

Answered examples (5):
| molecule | result |
| --- | --- |
| CN(C)C1CCN(C(=O)c2cc(-c3cnc4[nH]cc(-c5cc(F)ccc5F)c4c3Cl)cnc2N)C1 (stereo not drawn) | 100 to 1000 nM |
| CN(C)C(=O)c1cncc(-c2cnc3[nH]cc(-c4ccccc4F)c3c2Cl)n1 [6-[4-Chloro-3-(2-fluoro-phenyl)-1H-pyrrolo[2,3-b]pyridin-5-y] | > 1000 nM |
| COc1ncccc1-c1c[nH]c2ncc(-c3cnc(N)c(C(=O)N(C)C)c3)c(Cl)c12 | 10 to 100 nM |
| CNC(=O)c1cncc(-c2cnc3[nH]cc(-c4ccccc4F)c3c2Cl)n1 | > 1000 nM |
| CN(C)C(=O)c1cc(-c2cnc3[nH]cc(-c4cc(F)ccc4Cl)c3c2Cl)cnc1N | 100 to 1000 nM |

We next turn to a different molecule, shown below.
Note down GI50 recorded for COc1ncccc1-c1c[nH]c2ncc(-c3cncc(C(O)C(=O)N(C)C)c3)c(Cl)c12 (stereo not drawn)
10 to 100 nM

Source: patent US8158647B2
